- systemUnderTest: Mcl-1 protein (UniProtKB Q07820) (Homo sapiens (Human), UniProt Q07820)
- Sequence (Q07820 whole entry): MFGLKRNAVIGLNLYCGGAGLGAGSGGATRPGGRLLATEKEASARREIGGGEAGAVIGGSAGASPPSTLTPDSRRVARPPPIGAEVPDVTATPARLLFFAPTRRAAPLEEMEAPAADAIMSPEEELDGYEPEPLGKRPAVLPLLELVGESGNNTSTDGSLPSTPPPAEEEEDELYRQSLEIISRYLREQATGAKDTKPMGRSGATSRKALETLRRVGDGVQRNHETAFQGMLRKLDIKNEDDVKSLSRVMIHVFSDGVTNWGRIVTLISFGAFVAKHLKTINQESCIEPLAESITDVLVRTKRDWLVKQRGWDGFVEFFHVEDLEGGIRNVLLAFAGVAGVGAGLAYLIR
- experimentDescription: Inhibition of Mcl-1 by the fluorescence polarisation assay (Example A, Method A)
- assayConditions: fluorescence polarization assay
Recorded measurements of Ki, one per entry
Dear colleague, please return just the value in nM, with no unit written.

Here are 2 compounds together with their reported answers.
>>> print(df.to_string())
                                   compound  measuredendpoint  unit  readoutnumber
0  Cc1cnccc1CCCOC1Cc2ccccc2[C@]12CC[C@@](Nc1cccc(Cl)c1)(C(=O)O)CC2 (stereo partly drawn) [Example 401]                Ki    nM            320
1  CC1CCc2nccc(OC[C@H](C)C[C@H]3Cc4ccccc4[C@]34CC[C@@](Nc3cccc(Cl)c3)(C(=O)O)CC4)c2C1 (stereo partly drawn) [Example 651]                Ki    nM           17.9

Switching to the query record.
Value of measured Ki for the entry COc1ccc(Cl)c(C2Cc3ccccc3[C@]23CC[C@@](Nc2cccc(Cl)c2)(C(=O)O)CC3)c1 (single isomer, unassigned) [Example 258] : 2370
